# System under test: PDE4B (human recombinant) (Homo sapiens, UniProt Q07343)
# Construct: made in house
# Sequence (Q07343 1-564 isoform Q07343-2): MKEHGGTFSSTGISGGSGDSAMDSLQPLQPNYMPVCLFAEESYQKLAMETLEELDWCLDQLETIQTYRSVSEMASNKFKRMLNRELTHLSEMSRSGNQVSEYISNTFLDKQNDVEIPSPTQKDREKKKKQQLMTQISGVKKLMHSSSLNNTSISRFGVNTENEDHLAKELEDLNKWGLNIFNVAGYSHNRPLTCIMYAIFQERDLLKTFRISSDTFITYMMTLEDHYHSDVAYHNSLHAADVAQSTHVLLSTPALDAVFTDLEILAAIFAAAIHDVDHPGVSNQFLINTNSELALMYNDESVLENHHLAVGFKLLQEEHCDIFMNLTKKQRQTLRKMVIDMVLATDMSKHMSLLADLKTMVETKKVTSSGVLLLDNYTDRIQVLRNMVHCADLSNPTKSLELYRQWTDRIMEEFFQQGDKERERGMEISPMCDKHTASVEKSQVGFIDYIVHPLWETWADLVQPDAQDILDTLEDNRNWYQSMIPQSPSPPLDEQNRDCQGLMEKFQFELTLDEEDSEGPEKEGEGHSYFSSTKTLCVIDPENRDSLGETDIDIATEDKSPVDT
# Assay summary: Inhibition of PDE4B activity: SPA and/or Fluorescence Polarisation (FP) assay
# Format: biochemical
# Condition info: one reading (n=1) or average of 2 or more readings, read-out: PDE4B pIC50 (±about 0.5) (converted)
Structures can show the parent of a compound that is named as a salt.
Measured metric: IC50

Molecule: CCn1ncc2c(NC3CCOCC3)c(CNC(=O)c3ccco3)c(C)nc21
System under test: PDE4B (human recombinant) (Homo sapiens, UniProt Q07343)
Value measured: 0.126 to 1 nM

Molecule: CCn1ncc2c(NC3CCOCC3)c(CNC(=O)c3ccc(C(C)(C)C)cc3)c(C)nc21
System under test: PDE4B (human recombinant) (Homo sapiens, UniProt Q07343)
Value measured: 0.01 to 0.1 nM

Molecule: CCc1nc2c(cnn2CC)c(NC2CCN(C(N)=O)CC2)c1CNC(=O)c1ccc(NC(C)=O)cc1
System under test: PDE4B (human recombinant) (Homo sapiens, UniProt Q07343)
Value measured: 0.01 to 0.1 nM

Molecule: CCc1nc2c(cnn2CC)c(NC2CCN(C(N)=O)CC2)c1CNC(=O)c1ccc(C2CCCC2)cc1
System under test: PDE4B (human recombinant) (Homo sapiens, UniProt Q07343)
Value measured: 0.01 to 0.1 nM

Molecule: CCn1ncc2c(NC3CCN(C(N)=O)CC3)c(CNC(=O)c3ccc(NC(C)=O)cc3O)c(C)nc21
System under test: PDE4B (human recombinant) (Homo sapiens, UniProt Q07343)
Value measured: 0.01 to 0.1 nM

Molecule: CCc1nc2c(cnn2CC)c(NC2CCOCC2)c1CNC(=O)c1cc(C#N)c(C(C)C)cc1OC
System under test: PDE4B (human recombinant) (Homo sapiens, UniProt Q07343)
Value measured: 0.01 to 0.1 nM

Molecule: CCc1nc2c(cnn2CC)c(NC2CCOCC2)c1CNC(=O)c1ccccc1
System under test: PDE4B (human recombinant) (Homo sapiens, UniProt Q07343)
Value measured: 0.126 to 1 nM

Molecule: CCc1nc2c(cnn2CC)c(NC2CCOCC2)c1CNC(=O)c1ccccc1O
System under test: PDE4B (human recombinant) (Homo sapiens, UniProt Q07343)
Value measured: 0.01 to 0.1 nM

Molecule: CCc1nc2c(cnn2CC)c(NC2CCOCC2)c1CNC(=O)c1ccc2c(c1)CCC2
System under test: PDE4B (human recombinant) (Homo sapiens, UniProt Q07343)
Value measured: 0.01 to 0.1 nM

Molecule: CCn1ncc2c(NC3CCOCC3)c(CNC(=O)c3ccc(C(=O)NC)cc3)c(C)nc21
System under test: PDE4B (human recombinant) (Homo sapiens, UniProt Q07343)
Value measured: 0.126 to 1 nM

Molecule: CCc1nc2c(cnn2CC)c(NC2CCOCC2)c1CNC(=O)c1oc(C)nc1C [Example 335, formate]
System under test: PDE4B (human recombinant) (Homo sapiens, UniProt Q07343)
Value measured: 0.126 to 1 nM

Molecule: CCc1nc2c(cnn2CC)c(NC2CCOCC2)c1CNC(=O)c1cc(S(=O)(=O)N(CC)CC)ccc1OC
System under test: PDE4B (human recombinant) (Homo sapiens, UniProt Q07343)
Value measured: 0.01 to 0.1 nM

Molecule: CCc1nc2c(cnn2CC)c(NC2CCOCC2)c1CNC(=O)c1cc(S(=O)(=O)c2ccccc2)ccc1OC
System under test: PDE4B (human recombinant) (Homo sapiens, UniProt Q07343)
Value measured: 0.01 to 0.1 nM

Molecule: CCn1ncc2c(NC3CCOCC3)c(CNC(=O)c3ccc(N4CCCCC4)cc3)c(C)nc21
System under test: PDE4B (human recombinant) (Homo sapiens, UniProt Q07343)
Value measured: 0.01 to 0.1 nM

Molecule: CCn1ncc2c(NC3CCOCC3)c(CNC(=O)c3ccc(S(C)(=O)=O)cc3)c(C)nc21
System under test: PDE4B (human recombinant) (Homo sapiens, UniProt Q07343)
Value measured: 0.126 to 1 nM

Molecule: CCn1ncc2c(NC3CCN(C(N)=O)CC3)c(CNC(=O)c3ccc(C)c4c3OCC4)c(C)nc21
System under test: PDE4B (human recombinant) (Homo sapiens, UniProt Q07343)
Value measured: 0.01 to 0.1 nM

----------
# System under test: PDE4B (human recombinant) (Homo sapiens)
# Construct: made in house
# Assay summary: Inhibition of PDE4B activity: SPA and/or Fluorescence Polarisation (FP) assay
# Type: biochemical
# Condition info: one reading (n=1) or average of 2 or more readings, read-out: PDE4B pIC50 (±about 0.5) (converted)
List of IC50 values.

Smi: CCn1ncc2c(NC3CCN(C(N)=O)CC3)c(CNC(=O)c3ccc(C4CCCC4)cc3)c(C)nc21
IC50: 0.01 to 0.1 nM

Smi: CCn1ncc2c(NC3CCOCC3)c(CNC(=O)c3coc(C)n3)c(C)nc21
IC50: 0.126 to 1 nM

Smi: CCn1ncc2c(NC3CCOCC3)c(CNC(=O)c3ccc(C)cc3O)c(C)nc21
IC50: 0.01 to 0.1 nM

Smi: CCn1ncc2c(NC3CCOCC3)c(CNC(=O)c3ccc4c(=O)[nH][nH]c4c3)c(C)nc21
IC50: 0.126 to 1 nM

Smi: CCn1ncc2c(NC3CCOCC3)c(CNC(=O)c3ccn(C)n3)c(C)nc21
IC50: 0.126 to 1 nM

Smi: CCn1ncc2c(NC3CCN(C(N)=O)CC3)c(CNC(=O)c3ccccc3F)c(C)nc21
IC50: 0.126 to 1 nM

Smi: CCOc1ccccc1C(=O)NCc1c(CC)nc2c(cnn2CC)c1NC1CCOCC1
IC50: 0.01 to 0.1 nM

Smi: CCn1ncc2c(NC3CCOCC3)c(CNS(=O)(=O)c3cccs3)c(C)nc21
IC50: 0.126 to 1 nM

----------
# System under test: PDE4B (human recombinant) (Homo sapiens, UniProt Q07343)
# Construct: made in house
# Assay summary: Inhibition of PDE4B activity: SPA and/or Fluorescence Polarisation (FP) assay
# Format: biochemical
# Condition info: one reading (n=1) or average of 2 or more readings, read-out: PDE4B pIC50 (±about 0.5) (converted)
# Protocol: The ability of compounds to inhibit catalytic activity at PDE4B or 4D (human recombinant), PDE3 (from bovine aorta), PDE5 (human recombinant) or PDE6 (from bovine retina) can optionally be determined by Scintillation Proximity Assay (SPA) in a 96-well format. The enzyme concentration is adjusted so that no more than 20% hydrolysis of the substrate defined below occurs in control wells without compound, during the incubation. […] Results are expressed as pIC50 values. […]

Smi: CCn1ncc2c(NC3CCN(C(N)=O)CC3)c(CNC(=O)c3ccc(C(C)(C)C)cc3)c(C)nc21
IC50: 0.01 to 0.1 nM
//
Smi: CCc1nc2c(cnn2CC)c(NC2CCOCC2)c1CNC(=O)c1ccnn1C
IC50: 0.126 to 1 nM
//
Smi: CCn1ncc2c(NC3CCOCC3)c(CNC(=O)c3ccc4c(c3)CCC4)c(C)nc21
IC50: 0.126 to 1 nM
//
Smi: CCn1ncc2c(NC3CCOCC3)c(CNC(=O)c3ccc(N(C)C)cc3)cnc21
IC50: 0.126 to 1 nM

----------
# System under test: PDE4B (human recombinant) (Homo sapiens, UniProt Q07343)
# Construct: made in house
# Assay summary: Inhibition of PDE4B activity: SPA and/or Fluorescence Polarisation (FP) assay
# Format: biochemical
# Condition info: one reading (n=1) or average of 2 or more readings, read-out: PDE4B pIC50 (±about 0.5) (converted)

Compound: CCc1nc2c(cnn2CC)c(NC2CCOCC2)c1CNC(=O)c1csc(C(F)(F)F)n1 [Example 339]
IC50: 10 to 100 pM

Compound: CCn1ncc2c(NC3CCOCC3)c(CNC(=O)c3cnc(C)s3)c(C)nc21 [Example 322]
IC50: 126 to 1000 pM

Compound: CCc1nc2c(cnn2CC)c(NC2CCOCC2)c1CNC(=O)c1ccncc1F [Example 231]
IC50: 126 to 1000 pM

Compound: CCc1nc2c(cnn2CC)c(NC2CCOCC2)c1CNC(=O)NCCc1ccccc1 [Example 202]
IC50: 126 to 1000 pM

Compound: CCc1nc2c(cnn2CC)c(NC2CCOCC2)c1CNC(=O)c1ccc(F)cc1 [Example 307]
IC50: 126 to 1000 pM

Compound: CCc1nc2c(cnn2CC)c(NC2CCOCC2)c1CNC(=O)Nc1ccccc1 [Example 203]
IC50: 126 to 1000 pM

----------
List of IC50 values.
# System under test: PDE4B (human recombinant) (Homo sapiens)
# Construct: made in house
# Assay summary: Inhibition of PDE4B activity: SPA and/or Fluorescence Polarisation (FP) assay
# Format: biochemical
# Condition info: one reading (n=1) or average of 2 or more readings, read-out: PDE4B pIC50 (±about 0.5) (converted)
# Protocol: The ability of compounds to inhibit catalytic activity at PDE4B or 4D (human recombinant), PDE3 (from bovine aorta), PDE5 (human recombinant) or PDE6 (from bovine retina) can optionally be determined by Scintillation Proximity Assay (SPA) in a 96-well format. The enzyme concentration is adjusted so that no more than 20% hydrolysis of the substrate defined below occurs in control wells without compound, during the incubation. […] Results are expressed as pIC50 values. […]

Compound: CCc1nc2c(cnn2CC)c(NC2CCOCC2)c1CNC(=O)c1cccc2ccccc12 [Example 192]
IC50: 126 to 1000 pM
//
Compound: CCn1ncc2c(NC3CCOCC3)c(CNC(=O)c3ccc(NC(C)=O)cc3)c(C)nc21 [Example 93]
IC50: 126 to 1000 pM
//
Compound: CCc1nc2c(cnn2CC)c(NC2CCOCC2)c1CNC(=O)c1cc(S(=O)(=O)NCC2CC2)ccc1OC [Example 183]
IC50: 10 to 100 pM
//
Compound: CCn1ncc2c(NC3CCOCC3)c(CNC(=O)c3ccc(N4CCCC4=O)cc3)c(C)nc21 [Example 288]
IC50: 10 to 100 pM
//
Compound: CCn1ncc2c(NC3CCN(C(N)=O)CC3)c(CNC(=O)c3ccc(N4CCCCC4)cc3)c(C)nc21 [Example 269]
IC50: 10 to 100 pM
//
Compound: CCn1ncc2c(NC3CCOCC3)c(CNC(=O)c3cccnc3)c(C)nc21 [Example 125]
IC50: 126 to 1000 pM
//
Compound: CCc1nc2c(cnn2CC)c(NC2CCOCC2)c1CNC(=O)c1ccc(NC(C)=O)cc1O [Example 251]
IC50: 10 to 100 pM
//
Compound: CCn1ncc2c(NC3CCN(C(N)=O)CC3)c(CNC(=O)c3ccc(NC(C)=O)c4c3OCC4)c(C)nc21 [Example 305]
IC50: 10 to 100 pM
//
Compound: CCc1nc2c(cnn2CC)c(NC2CCOCC2)c1CNC(=O)c1ccc(C)nc1 [Example 334]
IC50: 126 to 1000 pM
//
Compound: CCn1ncc2c(NC3CCOCC3)c(CNC(=O)c3ccccc3O)c(C)nc21 [Example 275]
IC50: 10 to 100 pM
//
Compound: CCc1nc2c(cnn2CC)c(NC2CCOCC2)c1CN1Cc2ccccc2C1=O [Example 199]
IC50: 10 to 100 pM
//
Compound: CCc1nc2c(cnn2CC)c(NC2CCOCC2)c1CNC(=O)c1cc(C)on1 [Example 233]
IC50: 10 to 100 pM
//
Compound: CCc1nc2c(cnn2CC)c(NC2CCOCC2)c1CNC(=O)c1ccc(C(=O)NC)cc1 [Example 255]
IC50: 10 to 100 pM
//
Compound: CCc1nc2c(cnn2CC)c(NC2CCN(C(N)=O)CC2)c1CNC(=O)c1ccc(NC(C)=O)c2c1OCC2 [Example 304]
IC50: 10 to 100 pM
//
Compound: CCc1nc2c(cnn2CC)c(NC2CCOCC2)c1CNC(=O)c1ccc2c(=O)[nH][nH]c2c1 [Example 257]
IC50: 10 to 100 pM
//
Compound: CCc1nc2c(cnn2CC)c(NC2CCN(C(N)=O)CC2)c1CNC(=O)c1ccc(C)cc1O [Example 245]
IC50: 10 to 100 pM
//
Compound: CCc1nc2c(cnn2CC)c(NC2CCOCC2)c1CNC(=O)c1cnccn1 [Example 146]
IC50: 126 to 1000 pM
//
Compound: CCn1ncc2c(NC3CCOCC3)c(CNC(=O)c3cc(C)on3)c(C)nc21 [Example 225]
IC50: 126 to 1000 pM
//
Compound: CCc1nc2c(cnn2CC)c(NC2CCOCC2)c1CNC(=O)c1nc(C)oc1C(F)(F)F [Example 155]
IC50: 126 to 1000 pM
//
Compound: CCn1ncc2c(NC3CCOCC3)c(CNC(=O)c3cccc(N4CCCC4=O)c3)c(C)nc21 [Example 216]
IC50: 126 to 1000 pM
//
Compound: CCc1nc2c(cnn2CC)c(NC2CCN(C(N)=O)CC2)c1CNC(=O)c1cccc2c1OCC2 [Example 205]
IC50: 10 to 100 pM
//
Compound: CCc1nc2c(cnn2CC)c(NC2CCOCC2)c1CN1Cc2ccc(F)cc2C1=O [Example 315]
IC50: 10 to 100 pM
